Sourced from patent US20260138990A1

biological target: human CD38 (Homo sapiens, UniProt P28907); experiment: NAD+ cyclase activity assay with human recombinant CD38 protein (ε-NAD fluorescence); details: 1.9 nM human CD38, substrate ε-NAD, 30 min preincubation, fluorescence 300/410 nm
Sequence (P28907 whole entry): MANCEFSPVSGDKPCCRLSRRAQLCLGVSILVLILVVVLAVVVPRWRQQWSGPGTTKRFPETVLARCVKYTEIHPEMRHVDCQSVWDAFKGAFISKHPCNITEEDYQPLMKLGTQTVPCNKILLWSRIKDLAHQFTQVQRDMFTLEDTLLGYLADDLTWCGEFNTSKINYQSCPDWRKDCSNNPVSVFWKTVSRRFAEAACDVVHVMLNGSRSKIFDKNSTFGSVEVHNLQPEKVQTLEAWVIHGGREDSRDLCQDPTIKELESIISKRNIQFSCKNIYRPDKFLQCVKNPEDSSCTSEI
Counter-ions that a name gives are not always drawn.
Outcome measure: IC50

Illustrative cases are given below, each with its answer.
O=C(N[C@H]1CC[C@@H](N2CC(F)(F)C2)CC1)c1ccc2c(c1)-c1cncn1CCO2 [Compound 64A] | 100 to 1000 nM
O=C(N[C@H]1CC[C@H](NCC(F)(F)F)CC1)c1cc(F)c2c(c1)-c1cncn1CCO2 [Compound 115A] | < 30 nM
CN(C)c1nc2cc(NC(=O)c3ccc4c(c3)-c3cncn3CCO4)ccc2s1 [Compound 49A] | < 30 nM
O=C(N[C@H]1CC[C@H](CCO)CC1)c1ccc2c(c1)-c1cncn1CCO2 [Compound 56A] | < 30 nM
O=C(Nc1ccc2c(c1)CNC2)c1ccc2c(c1)-c1cncn1CCO2 [Compound 24A, hydrochloride] | 30 to 100 nM
CS(=O)(=O)c1cccc(NC(=O)c2ccc3c(c2)-c2cncn2CCO3)c1 [Compound 18A] | < 30 nM

For every record below, what is its IC50?
1. Cc1c(C(=O)NC2CCC(OCC(F)(F)F)CC2)cc2c(c1C)OCCn1cncc1-2 (stereo not shown) [Compound 189A]
2. CS(=O)(=O)CCCO[C@H]1CC[C@H](NC(=O)c2ccc3c(c2)-c2cncn2CCO3)CC1 [Compound 85A]
3. O=C(NC1CC(F)(F)C1)c1ccc2c(c1)-c1cncn1CCO2 [Compound 84A]

OUTPUT:
1: 100 to 1000 nM; 2: < 30 nM; 3: < 30 nM

Please go through the list and note IC50 for each compound.
1. O=C(N[C@H]1CC[C@H](OC2CC(F)(F)C2)CC1)c1cc(Cl)c2c(c1)-c1cncn1CCO2 [Compound 172A]
2. COCC1COc2ncc(NC(=O)c3ccc4c(c3)-c3cncn3CCO4)cc2O1 (stereo not shown) [Compound 145A]
3. O=C(NC1CC2(CCC2)C1)c1cc(F)c2c(c1)-c1cncn1CCO2 [Compound 159A]
4. O=C(Nc1cnc(NCC(F)(F)F)nc1)c1ccc2c(c1)-c1cncn1CCO2 [Compound 100A]
5. O=C(N[C@H]1CC[C@@H](OCC(F)(F)F)CC1)c1ccc2c(c1)-c1cncn1CCO2 [Compound 123A]
6. C[C@H]1CCCC[C@@H]1NC(=O)c1cc(F)c2c(c1)-c1cncn1CCO2 (relative stereo) [Compound 174A]
7. CS(=O)(=O)N1Cc2ccc(NC(=O)c3ccc4c(c3)-c3cncn3CCO4)cc2C1 [Compound 25A]

OUTPUT:
< 30 nM
< 30 nM
< 30 nM
< 30 nM
100 to 1000 nM
< 30 nM
< 30 nM
